Sourced from patent US20170281611A1

# Experiment description: Pharmacokinetics in Beagle dogs (Table 5)
# Assay type: in vivo
# Assay conditions: male, Beagle, plasma; dog, IV (1 mg/kg)
Recorded metric: AUC(0-t) (ng·h/mL)
Numbers only, in ng·h/mL.

Problem: # get_value(readout='AUC(0-t)', item= `O=C(c1ccc(N2CCCC2)c([N+](=O)[O-])c1)N1CCN(c2ccnc3cc(Cl)ccc23)CC1` )
Solution: 13900

----------
# Experiment description: Pharmacokinetics in Beagle dogs (Table 5)
# Format: in vivo
# Assay conditions: male, Beagle, plasma; dog, PO (10 mg/kg)
Recorded metric: AUC(0-inf) (µg·h/mL)
Answers are plain numbers, in µg·h/mL.

Problem: # get_value(readout='AUC(0-inf)', item= O=C(c1ccc(N2CCCC2)c([N+](=O)[O-])c1)N1CCN(c2ccnc3cc(Cl)ccc23)CC1 [Compound D6] )
Solution: 114

----------
# Tested target: SERCA, cardiac SR
# Construct: 2 mg or 7 mg of SR vesicles (optimized for skeletal or cardiac SR, respectively)
# Sequence (P16615 1-997 isoform P16615-2): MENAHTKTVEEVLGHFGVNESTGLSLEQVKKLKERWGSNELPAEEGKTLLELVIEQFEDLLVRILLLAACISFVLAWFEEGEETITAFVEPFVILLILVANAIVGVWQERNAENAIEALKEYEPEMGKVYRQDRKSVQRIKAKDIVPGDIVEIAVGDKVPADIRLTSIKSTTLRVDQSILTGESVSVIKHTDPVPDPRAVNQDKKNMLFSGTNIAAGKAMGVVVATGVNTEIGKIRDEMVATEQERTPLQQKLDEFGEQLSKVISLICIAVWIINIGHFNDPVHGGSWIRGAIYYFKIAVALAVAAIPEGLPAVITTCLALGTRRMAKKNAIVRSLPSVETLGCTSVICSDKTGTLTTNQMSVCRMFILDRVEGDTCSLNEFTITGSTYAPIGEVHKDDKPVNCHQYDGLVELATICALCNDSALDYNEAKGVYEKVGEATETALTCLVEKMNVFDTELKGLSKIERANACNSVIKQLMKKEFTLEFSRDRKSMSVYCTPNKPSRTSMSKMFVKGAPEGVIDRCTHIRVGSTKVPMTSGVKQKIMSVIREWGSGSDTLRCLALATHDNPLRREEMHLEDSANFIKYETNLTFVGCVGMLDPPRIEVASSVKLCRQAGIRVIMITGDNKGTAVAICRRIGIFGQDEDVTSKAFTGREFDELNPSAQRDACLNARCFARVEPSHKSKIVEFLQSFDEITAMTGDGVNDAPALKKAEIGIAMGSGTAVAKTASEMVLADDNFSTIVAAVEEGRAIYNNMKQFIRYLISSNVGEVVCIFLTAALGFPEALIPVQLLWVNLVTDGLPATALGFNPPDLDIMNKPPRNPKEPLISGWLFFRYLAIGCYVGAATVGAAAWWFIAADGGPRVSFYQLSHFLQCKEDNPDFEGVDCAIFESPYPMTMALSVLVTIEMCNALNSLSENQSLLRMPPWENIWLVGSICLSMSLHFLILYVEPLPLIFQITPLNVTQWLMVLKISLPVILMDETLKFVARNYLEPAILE
# Experiment description: Activation of SERCA, NADH-linked enzyme-coupled ATPase assay, cardiac SR
# Assay conditions: read-out: CSR EC50
pEC50: −log10 of the molar value.
Recorded metric: pEC50

O=C(Nc1cccc2cccnc12)c1cccc(F)c1 [Compound A7, 3-Fluoro-N-(quinolin-8-yl)benzamide]: > 4.70
Cc1ccc2cccc(NC(=O)c3ccc(C(C)(C)C)cc3)c2n1 [Compound A4]: > 4.70

From here, focus on the item given below.
Problem: # get_value(readout='pEC50', item= CC(C)Oc1ccc(C(=O)Nc2cccc3cccnc23)cc1 [Compound A11, 4-Isopropoxy-N-(quinolin-8-yl)benzamide] )
Solution: > 4.70

----------
# Experiment description: Pharmacokinetics in Sprague Dawley rats (Table 4)
# Assay type: in vivo
# Assay conditions: Sprague Dawley, in vivo; rat, IV (2 mg/kg)
# Text: Compound D1 was formulated in 0.3% DMA/1% SOLUTOL®/98.7% saline. Compound D6 was formulated in 0.5% DMA/1% SOLUTOL®/94.5% 0.01N HCl in saline/4% NaOH (pH 4-5).
Recorded metric: AUC(0-t) (ng·h/mL)
Give bare numbers, in ng·h/mL.

O=C(c1ccccc1)N1CCN(c2ccnc3cc(Cl)ccc23)CC1 [Compound D1]: 5880
O=C(c1ccccc1F)N1CCN(c2ccnc3cc(Cl)ccc23)CC1 [Compound D2]: 1790

From here, focus on the item given below.
Problem: # get_value(readout='AUC(0-t)', item= `O=C(c1ccc(N2CCCC2)c([N+](=O)[O-])c1)N1CCN(c2ccnc3cc(Cl)ccc23)CC1` )
Solution: 8600

----------
# Experiment description: Pharmacokinetics in Beagle dogs (Table 5)
# Assay type: in vivo
# Assay conditions: male, Beagle, plasma; dog, IV (1 mg/kg)
# Procedure: For pharmacokinetic evaluation, 3 male Beagle dogs were intravenously (IV) dosed (1 mg/kg body weight) and 3 male Beagle dogs were orally (PO) dosed (10 mg/kg body weight) with a test compound. Blood (approximately 1.0 mL) was collected via femoral vein into tubes containing K3EDTA anticoagulant at 0, 0.017, 0.083, 0.5, 1, 2, 4, 6, 8, and 24 hours post-dosing. Plasma samples were analyzed by LC-MS/MS. The analytical results were confirmed using quality control samples for intra-assay variation. […]
Recorded metric: clearance (mL/min/kg)
Give bare numbers, in mL/min/kg.

Problem: # get_value(readout='clearance', item= `O=C(c1ccc(N2CCCC2)c([N+](=O)[O-])c1)N1CCN(c2ccnc3cc(Cl)ccc23)CC1` )
Solution: 1.17
